# Tested on: Human immunodeficiency virus 1
# Protocol Description: Antiviral wild type activity against HIV-1 IIIB infected in human C8166 cells assessed as reduction in virus-induced cytopathic effect incubated for 3 days by MTT assay
# Type: functional, organism-based
# Experimental Parameters: Human immunodeficiency virus 1, IIIB, C8166, 72 h

{"columns": ["Substance Smiles", "EC50 [nM]"],
 "data": [
  ["CCc1c(CC2CCCCC2)nc(SCc2cc(-c3ccc(SC)cc3)[nH]n2)[nH]c1=O", 18],
  ["CCc1c(CC2CCCCC2)nc(SCc2cc(-c3ccc(O)cc3)[nH]n2)[nH]c1=O", 4]
]}

* * *

# Test system: Human immunodeficiency virus 1
# Protocol Description: Antiviral activity against HIV1 harboring Y188H mutant infected in MT4 cells assessed as virus-induced cytopathicity treated for 5 days by MTT assay
# Format: functional, organism-based
# Experimental Parameters: Human immunodeficiency virus 1, MT4, 120 h

{"columns": ["Substance Smiles", "EC50, nM"],
 "data": [
  ["C[C@H](Sc1nc(N)cc(Cl)n1)c1cc2ccoc2cn1", 77]
]}

* * *

Some compounds, each annotated with its measured EC50.
# System: Human immunodeficiency virus 1
# Protocol Description: Antiviral activity against HIV-1 harboring protease V82F mutant infected in human C8166 cells assessed as inhibition of viral replication measured for 72 hrs by spectrophotometric MTT assay
# Assay type: functional, organism-based
# Experimental Parameters: Human immunodeficiency virus 1, C8166, 72 h
Assay Metric: EC50

{"columns": ["Substance Smiles", "Result"],
 "data": [
  ["Cc1cc(C)cc(OCCSc2nc(Cc3c(F)cccc3F)cc(=O)[nH]2)c1", "11200 nM"],
  ["CSCSc1nc(Cc2c(Cl)cccc2Cl)cc(=O)[nH]1", "1300 nM"],
  ["CSCSc1nc(Cc2c(F)cccc2F)cc(=O)[nH]1", "800 nM"],
  ["Cc1cc(C)cc(OCCSc2nc(Cc3ccccc3)cc(=O)[nH]2)c1", "1300 nM"],
  ["CSCSc1nc(Cc2c(F)cccc2Cl)cc(=O)[nH]1", "400 nM"]
]}

* * *

# Protocol Description: Selectivity index, ratio of CC50 for human MT4 cells to EC50 for antiviral activity against HIV1 infected in human MT4 cells
# Format: toxicity, cell-based
# Experimental Parameters: read-out: Ratio CC50/EC50
Some compounds, each annotated with its measured selectivity ratio.

{"columns": ["Compound", "Result Qualifier", "selectivity ratio"],
 "data": [
  ["CCCCSc1nc(O)c(C)c(C(C)c2c(F)cccc2F)n1 (configuration not stated)", "=", 14000],
  ["CCC(C)Oc1nc(Cc2cc(C)cc(C)c2)c(C)c(=O)[nH]1 (configuration not stated)", ">", 416],
  ["CCCSc1nc(C2(c3c(F)cccc3F)CC2)c(C)c(=O)[nH]1", "=", 3000],
  ["CSCCSc1nc(C2(c3c(F)cccc3F)CC2)c(C)c(=O)[nH]1", "=", 2330],
  ["Cc1ccccc1Cc1nc(SC2CCCCC2)[nH]c(=O)c1C", ">", 506],
  ["Cc1c(O)nc(SC2CCCCC2)nc1Cc1ccccc1", ">", 530],
  ["CCC(C)Sc1nc(O)cc(Cc2cccc3ccccc23)n1 (configuration not stated)", ">", 909]
]}

* * *

# Protocol Description: Selectivity index, ratio of CC50 for human MT4 cells to EC50 for antiviral activity against HIV1 infected in human MT4 cells
# Format: toxicity, cell-based
# Experimental Parameters: read-out: Ratio CC50/EC50

{"columns": ["Molecule", "selectivity ratio"],
 "data": [
  ["Cc1c(Cc2c(Cl)cccc2Cl)nc(SCC(=O)Nc2ccc(F)c(F)c2)[nH]c1=O", "> 387"],
  ["Cc1c(O)nc(SC2CCCCC2)nc1C(C)c1c(F)cccc1F (stereo unspecified)", "> 33300"],
  ["Cc1c(C2(c3c(F)cccc3F)CC2)nc(SC2CCCC2)[nH]c1=O", 2660],
  ["Cc1cccc(Cc2cc(=O)[nH]c(OC3CCCCC3)n2)c1", "> 418"],
  ["CCC(C)Sc1nc(O)cc(Cc2cccc(C)c2)n1 (stereo unspecified)", "> 578"],
  ["Cc1c([C@H](C)c2c(F)cccc2F)nc(SC2CCCCC2)[nH]c1=O", "> 10000"],
  ["Oc1cc(Cc2ccccc2)nc(SC2CCCCC2)n1", "> 412"],
  ["CC(c1cc(O)nc(SC2CCCCC2)n1)c1c(F)cccc1F (stereo unspecified)", "> 6670"],
  ["CCC(C)Oc1nc(Sc2ccccc2)nc(N)c1C (stereo unspecified)", "> 45"],
  ["Cc1c(Cc2c(Cl)cccc2Cl)nc(SCC(=O)Nc2ccc([N+](=O)[O-])cc2)[nH]c1=O", 264],
  ["Cc1cccc(Cc2nc(SC3CCCC3)nc(O)c2C)c1", "> 530"]
]}
